- Test system: KRAS patient-derived spheroids with HUVEC/MSC, viability
- ASSAY_PROTOCOL: Anticancer human tumor 941728-121-R-J1-PDC patient-derived lung adenocarcinoma cell line growth inhibition [KRAS2]
- SETTINGS: second compound 1 µM; first compound 0.1 µM; active compounds read low
ENDPOINT_LABEL: viability, T/C (%)
Quick note: give the figure in %, leave out the unit.

| COMPOUND | TARGET_DESC | UNIT_SYMBOL | viability, T/C |
| --- | --- | --- | --- |
| COc1cc2nccc(Oc3ccc(NC(=O)C4(C(=O)Nc5ccc(F)cc5)CC4)cc3)c2cc1OC + C=CC(=O)N1CCN(c2nc(OCC3CCCN3C)nc3c2CCN(c2cccc4cccc(C)c24)C3)CC1CC#N | KRAS patient-derived spheroids with HUVEC/MSC, viability | % | 14.5 |

Moving on to another compound below.
GET /values?readout=viability, T/C&item= COC(=O)c1ccc2c(C(=Nc3ccc(N(C)C(=O)CN4CCN(C)CC4)cc3)c3ccccc3)c(O)[nH]c2c1 + CC1OCC2(CCN(c3cnc(Sc4ccnc(N)c4Cl)c(N)n3)CC2)C1N
25.5

====

compounds and their reported viability, T/C
- System: KRAS patient-derived spheroids with HUVEC/MSC, viability
- ASSAY_PROTOCOL: Anticancer human tumor 941728-121-R-J1-PDC cell line growth inhibition [KRAS2];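 note: spheroids exposed to agents for seven days before readout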
- SETTINGS: second compound 3.16 µM; first compound 0.0316 µM; active compounds read low
Quick note: give the figure in %, leave out the unit.

| COMPOUND | ENDPOINT_VALUE |
| --- | --- |
| CC1COCCN1c1cc(-c2ccnn2C)c2ccnc(-c3ccn[nH]3)c2n1 (stereo not drawn) + CNCc1ccccc1-c1csc(C(C)Nc2nc(C)nc3cc(OC)c(OC)cc23)c1 | 1.18 |
| COc1cc2nccc(Oc3ccc(NC(=O)C4(C(=O)Nc5ccc(F)cc5)CC4)cc3)c2cc1OC + C=CC(=O)N1CCN(c2nc(=O)n(-c3c(C)ccnc3C(C)C)c3nc(-c4c(O)cccc4F)c(F)cc23)C(C)C1 | 17.6 |

GET /values?readout=viability, T/C&item= COc1cc(Nc2ncc3c(n2)-c2ccc(Cl)cc2C(c2c(F)cccc2OC)=NC3)ccc1C(=O)O + COc1cc2nc(C)nc(NC(C)c3cc(N)cc(C(F)(F)F)c3)c2cc1OC1CCOC1
34.2

====

- Test system: KRAS patient-derived spheroids with HUVEC/MSC, viability
- ASSAY_PROTOCOL: Anticancer human tumor 941728-121-R-J1-PDC cell line growth inhibition [KRAS2];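 note: spheroids exposed to agents for seven days before readout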
- SETTINGS: second compound 3.16 µM; first compound 0.0316 µM; active compounds read low
# note: exactly 10% is not below, so it is label 0; use label 1 for viability, T/C strictly under it

Worked cases, answers included:
| COMPOUND | ASSIGNED_LABEL |
| --- | --- |
| CC(C)NCC(C(=O)N1CCN(c2ncnc3c2C(C)CC3O)CC1)c1ccc(Cl)cc1 (stereo unspecified) + COc1cc2nc(C)nc(NC(C)c3cc(N)cc(C(F)(F)F)c3)c2cc1OC1CCOC1 | label 0 |
| CC1OCC2(CCN(c3cnc(Sc4ccnc(N)c4Cl)c(N)n3)CC2)C1N (stereo unspecified) + C=CC(=O)N1CCN(c2nc(OCC3CCCN3C)nc3c2CCN(c2cccc4cccc(C)c24)C3)CC1CC#N | label 1 |
| Cn1ncnc1[C@H]1c2n[nH]c(=O)c3cc(F)cc(c23)N[C@@H]1c1ccc(F)cc1 + COc1cc2nc(C)nc(NC(C)c3cc(N)cc(C(F)(F)F)c3)c2cc1OC1CCOC1 | label 0 |
| COC(=O)c1ccc2c(C(=Nc3ccc(N(C)C(=O)CN4CCN(C)CC4)cc3)c3ccccc3)c(O)[nH]c2c1 + CNCc1ccccc1-c1csc(C(C)Nc2nc(C)nc3cc(OC)c(OC)cc23)c1 | label 1 |
| CN(C)C/C=C/C(=O)Nc1cc2c(Nc3ccc(F)c(Cl)c3)ncnc2cc1O[C@H]1CCOC1 + COc1cc2nc(C)nc(NC(C)c3cc(N)cc(C(F)(F)F)c3)c2cc1OC1CCOC1 | label 0 |

Attention now turns to another entry.
I'd appreciate it if you could check whether CC(C)NCC(C(=O)N1CCN(c2ncnc3c2C(C)CC3O)CC1)c1ccc(Cl)cc1 (stereo unspecified) + C=CC(=O)N1CCN(c2nc(OCC3CCCN3C)nc3c2CCN(c2cccc4cccc(C)c24)C3)CC1CC#N has viability, T/C smaller than 10%.
label 1

====

compounds and their reported viability, T/C
- Tested on: KRAS patient-derived spheroids with HUVEC/MSC, viability
- ASSAY_PROTOCOL: Anticancer human tumor 941728-121-R-J1-PDC cell line growth inhibition [KRAS2];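 note: spheroids exposed to agents for seven days before readout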
- SETTINGS: second compound 1 µM; first compound 3.16 µM; active compounds read low
Quick note: give the figure in %, leave out the unit.

# example entries with known answers
| COMPOUND | viability, T/C, % |
| --- | --- |
| CCNC(=O)CC1N=C(c2ccc(Cl)cc2)c2cc(OC)ccc2-n2c(C)nnc21 (stereo not drawn) + C=CC(=O)N1CCN(c2nc(OCC3CCCN3C)nc3c2CCN(c2cccc4cccc(C)c24)C3)CC1CC#N | 12 |
| CCNC(=O)CC1N=C(c2ccc(Cl)cc2)c2cc(OC)ccc2-n2c(C)nnc21 (stereo not drawn) + CC1OCC2(CCN(c3cnc(Sc4ccnc(N)c4Cl)c(N)n3)CC2)C1N | 10.3 |

GET /values?readout=viability, T/C&item= CC1COCCN1c1cc(-c2ccnn2C)c2ccnc(-c3ccn[nH]3)c2n1 (stereo not drawn) + CNCc1ccccc1-c1csc(C(C)Nc2nc(C)nc3cc(OC)c(OC)cc23)c1
11.4

====

- Tested on: KRAS patient-derived spheroids with HUVEC/MSC, viability
- ASSAY_PROTOCOL: Anticancer human tumor 941728-121-R-J1-PDC cell line growth inhibition [KRAS2];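 note: spheroids exposed to agents for seven days before readout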
- SETTINGS: second compound 1 µM; first compound 0.1 µM; active compounds read low
# note: exactly 40% is not below, so it is false (0); use true (1) for viability, T/C strictly under it

Worked cases, answers included:
| COMPOUND | TARGET_DESC | ASSIGNED_LABEL |
| --- | --- | --- |
| CN(C)C/C=C/C(=O)Nc1cc2c(Nc3ccc(F)c(Cl)c3)ncnc2cc1O[C@H]1CCOC1 + C=CC(=O)N1CCN(c2nc(OCC3CCCN3C)nc3c2CCN(c2cccc4cccc(C)c24)C3)CC1CC#N | KRAS patient-derived spheroids with HUVEC/MSC, viability | true (1) |
| Cn1nccc1Nc1nccc(-c2cc3c(s2)C(C)(C)N(CCN2CCOCC2)C3=O)n1 + COc1cc2nc(C)nc(NC(C)c3cc(N)cc(C(F)(F)F)c3)c2cc1OC1CCOC1 | KRAS patient-derived spheroids with HUVEC/MSC, viability | false (0) |
| O=C(c1cc(Cc2n[nH]c(=O)c3ccccc23)ccc1F)N1CCN(C(=O)C2CC2)CC1 + CC1OCC2(CCN(c3cnc(Sc4ccnc(N)c4Cl)c(N)n3)CC2)C1N | KRAS patient-derived spheroids with HUVEC/MSC, viability | false (0) |
| Cn1nccc1Nc1nccc(-c2cc3c(s2)C(C)(C)N(CCN2CCOCC2)C3=O)n1 + C=CC(=O)N1CCN(c2nc(=O)n(-c3c(C)ccnc3C(C)C)c3nc(-c4c(O)cccc4F)c(F)cc23)C(C)C1 | KRAS patient-derived spheroids with HUVEC/MSC, viability | true (1) |

I'd appreciate it if you could check whether COC(=O)c1ccc2c(C(=Nc3ccc(N(C)C(=O)CN4CCN(C)CC4)cc3)c3ccccc3)c(O)[nH]c2c1 + C=CC(=O)N1CCN(c2nc(OCC3CCCN3C)nc3c2CCN(c2cccc4cccc(C)c24)C3)CC1CC#N has viability, T/C smaller than 40%.
true (1)
